Origin of values: paper PMC5248591

experiment: SAD study: plasma and urine pharmacokinetics after a single oral dose; type: in vivo, human; details: human, plasma, po, 200 mg
assay.metric: AUC(0-t) (ng·h/mL)

CC(=O)O.NC(=O)c1cnc(N[C@@H]2CCCC[C@@H]2N)nc1Nc1cccc(-n2nccn2)c1 [PRT062607]: 13700

---

assay: SAD study: plasma and urine pharmacokinetics after a single oral dose; assay type: in vivo, human; conditions: human, plasma, po, 200 mg
assay.metric: Tmax (h)

CC(=O)O.NC(=O)c1cnc(N[C@@H]2CCCC[C@@H]2N)nc1Nc1cccc(-n2nccn2)c1: 2

---

assay type: in vivo, human; details: human, plasma, oral, 66 mg
assay.metric: AUC (ng·h/mL)

CC(=O)O.NC(=O)c1cnc(N[C@@H]2CCCC[C@@H]2N)nc1Nc1cccc(-n2nccn2)c1: 4630

---

assay type: in vivo, human; details: human, urine and plasma, oral, 66 mg
assay.metric: CL renal (mL/min/kg)

CC(=O)O.NC(=O)c1cnc(N[C@@H]2CCCC[C@@H]2N)nc1Nc1cccc(-n2nccn2)c1 [PRT062607]: 0.2

---

type: in vivo, human; conditions: human, plasma, oral, 33 mg
assay.metric: AUC (ng·h/mL)

CC(=O)O.NC(=O)c1cnc(N[C@@H]2CCCC[C@@H]2N)nc1Nc1cccc(-n2nccn2)c1: 1810

---

assay: SAD study: plasma and urine pharmacokinetics after a single oral dose; type: in vivo, human; conditions: human, plasma, po, 400 mg
assay.metric: AUC(0-t) (ng·h/mL)

CC(=O)O.NC(=O)c1cnc(N[C@@H]2CCCC[C@@H]2N)nc1Nc1cccc(-n2nccn2)c1 [PRT062607]: 22300

---

assay: SAD study: plasma and urine pharmacokinetics after a single oral dose; assay type: in vivo, human; conditions: human, plasma, po, 200 mg
assay.metric: Cmax (ng/mL)

CC(=O)O.NC(=O)c1cnc(N[C@@H]2CCCC[C@@H]2N)nc1Nc1cccc(-n2nccn2)c1: 629

---

assay: SAD study: plasma and urine pharmacokinetics after a single oral dose; format: in vivo, human; details: human, plasma, po, 400 mg
assay.metric: Cmax (ng/mL)

CC(=O)O.NC(=O)c1cnc(N[C@@H]2CCCC[C@@H]2N)nc1Nc1cccc(-n2nccn2)c1: 996

---

assay type: in vivo, human; settings: human, plasma, oral
assay.metric: Tmax

CC(=O)O.NC(=O)c1cnc(N[C@@H]2CCCC[C@@H]2N)nc1Nc1cccc(-n2nccn2)c1: 1.5 to 4 h

---

assay type: in vivo, human; conditions: human, urine and plasma, oral, 33 mg
assay.metric: CL renal (mL/min/kg)

CC(=O)O.NC(=O)c1cnc(N[C@@H]2CCCC[C@@H]2N)nc1Nc1cccc(-n2nccn2)c1 [PRT062607]: 0.2

---

test: SAD study: plasma and urine pharmacokinetics after a single oral dose; assay type: in vivo, human; details: human, plasma, po, 200 mg
assay.metric: half-life (h)

CC(=O)O.NC(=O)c1cnc(N[C@@H]2CCCC[C@@H]2N)nc1Nc1cccc(-n2nccn2)c1 [PRT062607]: 77.2

---

assay type: in vivo, human; settings: human, urine and plasma, oral, 11 mg
assay.metric: CL renal (mL/min/kg)

CC(=O)O.NC(=O)c1cnc(N[C@@H]2CCCC[C@@H]2N)nc1Nc1cccc(-n2nccn2)c1 [PRT062607]: 0.2

---

experiment: SAD study: plasma and urine pharmacokinetics after a single oral dose; type: in vivo, human; settings: human, plasma, po, 300 mg
assay.metric: half-life (h)

CC(=O)O.NC(=O)c1cnc(N[C@@H]2CCCC[C@@H]2N)nc1Nc1cccc(-n2nccn2)c1 [PRT062607]: 93.8
